Target: T1, somatostatin receptor 2 (UniProt P30874 1-369, limits assumed)
T1 construct: whole, on cells; Assayed as membrane preparation of CHO-K1 cells stably expressing the cloned receptor; also called SSTR2; somatostatin receptor subtype 2
T1 sequence (P30874 whole entry): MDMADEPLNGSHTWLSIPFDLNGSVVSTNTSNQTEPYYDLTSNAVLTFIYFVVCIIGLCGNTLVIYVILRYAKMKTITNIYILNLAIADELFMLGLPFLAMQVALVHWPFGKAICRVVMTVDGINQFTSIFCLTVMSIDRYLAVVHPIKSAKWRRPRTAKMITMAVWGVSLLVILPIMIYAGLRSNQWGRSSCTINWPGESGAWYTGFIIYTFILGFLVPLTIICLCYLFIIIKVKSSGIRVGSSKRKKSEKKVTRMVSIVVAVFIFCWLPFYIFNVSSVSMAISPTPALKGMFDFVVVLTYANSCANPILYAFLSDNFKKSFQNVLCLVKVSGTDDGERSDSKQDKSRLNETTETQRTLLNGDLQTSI
Experiment: radioligand competition binding, membranes of CHO-K1 cells expressing SSTR2
pIC50: −log10 of the molar value. [ ]: non-standard residue; d: D form. GlyMeDOTA = DOTA chelator on the lysine side chain; Tpi = O=C(O)[C@@H]1Cc2c([nH]c3ccccc23)CN1; βAla(cyclopropyl) = beta-Ala(cyclopropyl); 1Nal = N[C@@H](Cc1cccc2ccccc12)C(=O)O; NMeF = CN[C@@H](Cc1ccccc1)C(=O)O; Dap = NC[C@H](N)C(=O)O
property_label: pIC50

{"binder": "cyclo(Y[dW]K[Dap]M[NMeF]) (SMILES CSCC[C@@H]1NC(=O)[C@H](CN)NC(=O)[C@H](CCCCN)NC(=O)[C@@H](Cc2c[nH]c3ccccc23)NC(=O)[C@H](Cc2ccc(O)cc2)NC(=O)[C@H](Cc2ccccc2)N(C)C1=O, Cyclic hexapeptide; also called cyclo[Tyr-DTrp-Lys-Dpr-Met-(NMe)Phe]) [P2267]", "property_label": "pIC50", "recorded_measurement": 9.30}
{"binder": "cyclo([1Nal][dW]KTK(GlyMeDOTA)[NMeF]) (Cyclic hexapeptide carrying a DOTA chelator on Lys 5; also called cyclo[1Nal-DTrp-Lys-Thr-Lys(GlyMeDOTA)-(N-Me)Phe]) [P2323]", "property_label": "pIC50", "recorded_measurement": 7.43}
{"binder": "cyclo(Y[dW]KTM[Tpi]) (SMILES CSCC[C@@H]1NC(=O)[C@H]([C@@H](C)O)NC(=O)[C@H](CCCCN)NC(=O)[C@@H](Cc2c[nH]c3ccccc23)NC(=O)[C@H](Cc2ccc(O)cc2)NC(=O)[C@@H]2Cc3c([nH]c4ccccc34)CN2C1=O, Cyclic hexapeptide; also called cyclo[Tyr-DTrp-Lys-Thr-Met-Tpi]) [P2274]", "property_label": "pIC50", "recorded_measurement": 8.91}
{"binder": "cyclo(Y[dW]K[βAla(cyclopropyl)]M[NMeF]) (Cyclic hexapeptide; also called cyclo[Tyr-DTrp-Lys-BAla(cyclopropyl)-Met-(N-Me)Phe]) [P2300]", "property_label": "pIC50", "recorded_measurement": 9.70}
{"binder": "cyclo(W[dW]KTM[NMeF]) (SMILES CSCC[C@@H]1NC(=O)[C@H]([C@@H](C)O)NC(=O)[C@H](CCCCN)NC(=O)[C@@H](Cc2c[nH]c3ccccc23)NC(=O)[C@H](Cc2c[nH]c3ccccc23)NC(=O)[C@H](Cc2ccccc2)N(C)C1=O, also called cyclo[Trp-DTrp-Lys-Thr-Met-(NMe)Phe]) [P2269]", "property_label": "pIC50", "recorded_measurement": 9.30}
